Biological target: GlcNAc(b1-3)Gal(b1-4)GlcNAc(b1-3)GalNAc
Assay: glycan array binding signal (z-score within array); higher = stronger binding
Settings: glycan notation: IUPAC condensed, linker removed
Only a selection was taken, and the strongest signals are over-represented in it overall.
parameter: glycan array binding signal (z-score)

INSERT INTO results (binder, obsvalue) VALUES
  ('GSL-I-B4 (Griffonia simplicifolia) (protein) NFWSDVEDSIIFQGDANTTAGTLQLCKTNQYGTPLQWSAGRALYSDPVQLWDNKTESVASFYTEFTFFLKITGNGPADGLAFFLAPPDSDVKDAGEYLGLFNKSTATQPSKNQVVAVEFDTWTNPNFPEPSYRHIGINVNSIVSVATKRWEDSDIFSGKIATARISYDGSAEILTVVLSYPDGSDYILSHSVDMRQNLPESVRVGISASTGNNQFLTVYILSWRFSSNLQSTSVKAAMEPEITRTVV', -0.208),
  ('YASPKCFRYPNGVLACT [Odorranalectin (Odorrana grahami), B3TFE9_RANGR]', 0.083),
  ('SP16663B-bot-321-25-321 (Bacteroides ovatus) (protein) DDDDEVTMNSKFYLSTKVFPVDSYEASLSVILKDNSVVVNELQPNYRFVACATERLSKDVKITADSDDNLVSAYNKANDTEYNILPAENYSFTNKTVTIENGESVSGDSIKIELLNVGSLTTEGGYLLPVTISSIEGNNLDALSSNRGVVYLKIQNIHVNVESGQPAEGTLIADRSGWTVKVAPTTRGDAKNLIDGTNSDVARDGGAEYWLTVDIGKVQTLTGIRNKCYASSYSPTAVEVFTSSDGAKWKSIGAVTISKSGTQYIKFSKAVETRYLKYYVKQGPNTVSLTEFDLYAK', -0.536),
  ('MAL-II (Maackia amurensis), P93248 (protein) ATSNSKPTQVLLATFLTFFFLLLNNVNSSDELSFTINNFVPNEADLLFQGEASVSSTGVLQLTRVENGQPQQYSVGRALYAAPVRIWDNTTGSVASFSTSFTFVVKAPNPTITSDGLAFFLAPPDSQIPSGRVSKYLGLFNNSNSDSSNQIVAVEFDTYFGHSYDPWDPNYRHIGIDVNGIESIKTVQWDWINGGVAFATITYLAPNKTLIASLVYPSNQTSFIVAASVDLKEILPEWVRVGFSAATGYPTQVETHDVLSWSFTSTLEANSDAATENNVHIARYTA', -0.159),
  ('DBA (Dolichos biflorus) (protein) ANIQSFSFKNFNSPSFILQGDATVSSGKLQLTKVKENGFPLRFPSGRAFYSSPIQIYDKFTGAVASWATSFTVKISAPSKASFADGIAFALVPVGSEPRRNGGYLGVFDSDVYNNSAQTVAVEFDTLSNSGWDPSMKHIGIDVNSIKSIATVSWDLANGENAEILITYNAATSLLVVSLVHPSRRTSYILSERVDITNELPEYVGVGFSATTGLSEGYIETHDVLSWSFASRLPDDSTAEPLDLARYLVRNVL', -0.139),
  ('UDA (Urtica dioica), P11218 (protein) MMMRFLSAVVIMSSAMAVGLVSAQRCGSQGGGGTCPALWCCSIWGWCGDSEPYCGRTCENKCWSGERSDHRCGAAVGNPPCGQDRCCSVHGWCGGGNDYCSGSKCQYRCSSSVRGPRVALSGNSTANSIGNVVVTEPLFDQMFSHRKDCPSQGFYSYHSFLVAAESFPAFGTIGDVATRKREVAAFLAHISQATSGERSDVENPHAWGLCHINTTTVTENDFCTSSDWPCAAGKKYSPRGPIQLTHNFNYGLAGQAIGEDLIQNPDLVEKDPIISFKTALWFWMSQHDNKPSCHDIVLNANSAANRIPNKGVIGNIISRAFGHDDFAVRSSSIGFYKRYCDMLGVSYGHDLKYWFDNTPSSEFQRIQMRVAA', -0.182);
